Give T/C for every item shown.
- Tested on: P388 leukemia ip, CD2F1 mice, survival T/C
- experiment: NCI In Vivo Anticancer Drug Screen. Data for tumor model P388 Leukemia (intraperitoneal) in CD2F1 (CDF1) mice
- condition_description: endpoint: median survival time; dose: 120.0 mg/kg/injection; schedule: Q01DX005 (ip); vehicle: Klucel (hydroxypropylcellulose) (HPC); higher = longer survival
Toxic doses and inconclusive results are not listed.

Would you mind telling me what T/C value was observed for `CCC[CH2][Sn]([Cl])([Cl])[CH2]CCC.c1ccc(-c2nnc(-c3ccccn3)nc2-c2ccccc2)cc1` ? 106 % of control

// same read-out, input: COc1cccc(C2c3cc4c(cc3OC(C)(O)C2C)OCO4)c1OC (stereo not given) 97 % of control

// same read-out, input: Cc1ccc(S(=O)(=O)C2C(C)(C)C2(Sc2ccccc2)[Si](C)(C)C)cc1 (stereo not given) 106 % of control

// same read-out, input: O=C1NCC(COc2ccc([N+](=O)[O-])cc2)O1 (stereo not given) 90 % of control

// same read-out, input: CC1([N+](=O)[O-])C(=O)C2(N3CCCC3)CCCC2C1c1ccccc1 (stereo not given) 91 % of control

* * *

- Test system: P388 leukemia ip, CD2F1 mice, survival T/C
- experiment: NCI In Vivo Anticancer Drug Screen. Data for tumor model P388 Leukemia (intraperitoneal) in CD2F1 (CDF1) mice
- condition_description: endpoint: median survival time; dose: 100.0 mg/kg/injection; schedule: Q04DX002 (ip); vehicle: Klucel (hydroxypropylcellulose) (HPC)
Inconclusive results and toxic doses are left out. How the source made its calls: active means survival T/C of 150% or more; inactive means T/C below 125% in these data.
# valid calls are active, inactive; nothing else

Could you kindly confirm the outcome this assay logged for `CC(C)=Cc1ccccc1C1(C)C(c2ccccc2)=C1c1ccccc1` ? inactive

// same read-out, input: `NC(N)=NS(=O)(=O)c1ccc(NCc2c3ccccc3nc3ccccc23)cc1` active

// same read-out, input: `C#CCNC(=O)/C(C)=C(\C)c1ccc(F)cc1` inactive

* * *

- Tested on: P388 leukemia ip, CD2F1 mice, survival T/C
- experiment: NCI In Vivo Anticancer Drug Screen. Data for tumor model P388 Leukemia (intraperitoneal) in CD2F1 (CDF1) mice
- condition_description: endpoint: median survival time; dose: 60.0 mg/kg/injection; schedule: Q01DX005 (ip); vehicle: saline with Tween-80; higher = longer survival
Toxic doses and inconclusive results are not listed.
Give T/C for every item shown.

Would you mind telling me what T/C value was observed for `Cc1cc2c(c(=O)o1)C1(C)CC(C)(O2)c2c(cc(C)oc2=O)O1` ? 99 % of control

// same read-out, input: `COC1=CC(=O)C(OC)=C(c2c[nH]c3ccccc23)C1=O` 95 % of control

// same read-out, input: `C[n+]1cccc(Oc2ccc[n+](C)c2)c1` 100 % of control

// same read-out, input: COc1nc(NC2OC(CO)C(O)C(O)C2O)c(C(=O)CCl)c(=O)n1C (configuration not stated) 92 % of control

// same read-out, input: `Nc1nc2ncn(COC(CO)CO)c2c(=O)[nH]1` 100 % of control

// same read-out, input: `Fc1ccc(C(Nc2nncs2)Nc2nncs2)c(F)c1` 105 % of control

// same read-out, input: `COc1ccc2c(c1)CN(C)c1ccc(OC)cc1CN2C` 100 % of control

* * *

- Test system: P388 leukemia ip, CD2F1 mice, survival T/C
- experiment: NCI In Vivo Anticancer Drug Screen. Data for tumor model P388 Leukemia (intraperitoneal) in CD2F1 (CDF1) mice
- condition_description: endpoint: median survival time; dose: 200.0 mg/kg/injection; schedule: Q01DX005 (ip); vehicle: Klucel (hydroxypropylcellulose) (HPC); higher = longer survival
Toxic doses and inconclusive results are not listed.
attribute_measured: T/C

Would you mind telling me what T/C value was observed for `O=CNc1ccc2c3c(cccc13)-c1ccccc1-2` ? 100 % of control

// same read-out, input: CC(Br)CCc1ccccc1Br (centres undefined) 97 % of control

// same read-out, input: `CC(=O)Oc1ccc(OC(C)=O)c2c1CC=CC2` 100 % of control

// same read-out, input: `C/C(C=O)=C\c1ccc2c(c1)OCO2` 106 % of control
